Antihyperalgesic, minimal effective dose values for the compounds below.
Tested on: thermal hyperalgesia
test-method-notes: CCI/Thermal Hyperalgesia (paw withdrawal latency to radiant heat)
Assay type: in vivo
test-conditions: CCI rats
I only need the number, in mg/kg, no unit after it.

[[record]]
line_notation = "O=C1CCCN1CC#CCN1CCCC1"
tested_target = "thermal hyperalgesia"
unit_name = "mg/kg"
observed_measurement = 0.3

[[record]]
line_notation = "CCCCC1CCN(CCCc2nsc3ccccc23)CC1"
tested_target = "thermal hyperalgesia"
unit_name = "mg/kg"
observed_measurement = 10.0

[[record]]
line_notation = "CO/N=C/C1=CCCN(C)C1"
tested_target = "thermal hyperalgesia"
unit_name = "mg/kg"
observed_measurement = 0.3


What is its Antihyperalgesic, minimal effective dose for thermal hyperalgesia? Entry: `CCCCC1CCN(CCCN2CCOc3ccc(C)cc32)CC1` 10.0

Antihyperalgesic, minimal effective dose of `CCCCC1CCN(CCCN2C(=O)COc3cc(F)ccc32)CC1` on thermal hyperalgesia? 10.0

For thermal hyperalgesia, provide Antihyperalgesic, minimal effective dose of `CCCCCCOc1nsnc1C1=CCCN(C)C1` please. 10.0

---

Entries and their measured EC50 follow.
tested-target: M(2) muscarinic receptor (Homo sapiens)
Construct: expressed in transfected cells
Sequence (P08172 whole entry): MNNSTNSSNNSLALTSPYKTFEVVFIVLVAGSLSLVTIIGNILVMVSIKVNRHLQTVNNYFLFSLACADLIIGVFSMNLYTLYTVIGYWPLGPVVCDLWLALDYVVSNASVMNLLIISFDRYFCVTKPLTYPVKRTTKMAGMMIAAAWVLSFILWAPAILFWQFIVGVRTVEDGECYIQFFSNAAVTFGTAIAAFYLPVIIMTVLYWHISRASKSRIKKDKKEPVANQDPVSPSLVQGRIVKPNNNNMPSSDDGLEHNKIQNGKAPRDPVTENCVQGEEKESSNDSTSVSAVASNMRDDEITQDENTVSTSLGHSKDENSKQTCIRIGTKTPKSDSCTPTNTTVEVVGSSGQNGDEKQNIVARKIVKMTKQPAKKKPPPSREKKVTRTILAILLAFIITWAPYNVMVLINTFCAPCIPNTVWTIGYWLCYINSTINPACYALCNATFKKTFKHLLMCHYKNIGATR
test-method-notes: R-SAT functional receptor assay, M(2)
Assay type: cell-based
test-conditions: R-SAT; read-out: M2 pEC50 (converted)
Give just the number in nM; leave the unit off.

So what's the measured EC50 for this one? CCCCC1CCN(CCCN2CCOc3ccc(C)cc32)CC1 [Formula (VIII)] 501

Consider the compound shown here: CCCCC1CCN(CCCN2C(=O)COc3cc(F)ccc32)CC1 [Formula (IX)] What is its recorded EC50? 501

What does the record list as EC50 for CCCCC1CCN(CCCc2nsc3ccccc23)CC1 [Formula (VII)] ? 1260

# query: EC50 of entry CO/N=C/C1=CCCN(C)C1 [Milameline] 631

---

tested-target: M(1) muscarinic receptor (Homo sapiens, UniProt P11229)
Construct: expressed in transfected cells
Sequence (P11229 whole entry): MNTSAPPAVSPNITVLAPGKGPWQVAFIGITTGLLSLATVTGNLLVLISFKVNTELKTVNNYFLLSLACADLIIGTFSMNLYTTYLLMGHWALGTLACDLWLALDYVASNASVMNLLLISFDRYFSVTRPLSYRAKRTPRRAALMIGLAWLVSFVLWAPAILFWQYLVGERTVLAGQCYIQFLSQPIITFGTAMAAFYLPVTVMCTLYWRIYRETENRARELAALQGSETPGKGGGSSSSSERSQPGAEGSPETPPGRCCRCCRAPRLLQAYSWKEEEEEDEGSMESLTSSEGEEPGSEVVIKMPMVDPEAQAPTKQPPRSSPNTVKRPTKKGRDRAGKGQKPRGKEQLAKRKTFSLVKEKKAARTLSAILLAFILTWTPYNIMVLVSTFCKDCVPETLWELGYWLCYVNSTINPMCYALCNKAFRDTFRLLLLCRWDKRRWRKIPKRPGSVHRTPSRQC
test-method-notes: R-SAT functional receptor assay, M(1)
Format: cell-based
test-conditions: R-SAT; read-out: M1 pEC50 (converted)
Examples of molecules with documented EC50 follow.
Supply the numeric figure in nM, leaving out any unit text.

[[record]]
line_notation = "CCCCC1CCN(CCCc2nsc3ccccc23)CC1"
measured_attribute = "EC50"
unit_name = "nM"
observed_measurement = 79.4


Record request: EC50 value, item `CO/N=C/C1=CCCN(C)C1` 398

I would be grateful if you could share the reported EC50 for `CCCCC1CCN(CCCN2CCOc3ccc(C)cc32)CC1` . 20

Would you kindly share the measured EC50 for `CCCCC1CCN(CCCN2C(=O)COc3cc(F)ccc32)CC1` ? 31.6
